B1: Azoarcus group I ribozyme (parent)
chain: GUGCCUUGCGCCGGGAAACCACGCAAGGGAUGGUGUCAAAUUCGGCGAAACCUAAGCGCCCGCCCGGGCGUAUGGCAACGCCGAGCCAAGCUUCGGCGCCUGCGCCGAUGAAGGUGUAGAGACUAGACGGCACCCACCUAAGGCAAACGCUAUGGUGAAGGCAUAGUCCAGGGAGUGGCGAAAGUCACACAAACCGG

variants of: B1; test: reverse-splicing fitness (ratio to wild type); higher = more active; in vitro selection; Mg2+ level not given
# cutoff 0.01 applies to reverse-splicing fitness; >= gives yes, < gives no

Please review the following examples before continuing.
# Variant Key, Class
data = [
    ("C82U A111G A120G A145G C169U", "yes"),
    ("C82A A111C A120C A145G C150G C169G U176G", "no"),
    ("C82U A111G A120U A145C C150A C169A U176A", "no"),
]

Could you tell me if the measured reverse-splicing fitness of A111C A120U A145G C150A U176A reaches 0.01 or more?
yes

Does C82G A111U A120G A145U C150U U176C have a reported reverse-splicing fitness of at least 0.01?
yes

Does reverse-splicing fitness meet or surpass 0.01 for C82G A111G A120C A145C C150A C169U U176G ?
no

Check if reverse-splicing fitness >= 0.01 (inclusive). Item: C82A A111U A145G
yes

Quick check, reverse-splicing fitness >= 0.01? C82U A111C C150G C169U U176A
no

Identify whether the reported reverse-splicing fitness of the following variant is 0.01 or greater: C82U A111U C150A C169A U176A
yes

Is reported reverse-splicing fitness greater than or equal to 0.01 here: A120G A145C C150U C169A U176C
yes

Kindly determine if reverse-splicing fitness recorded for A111G C150A C169G U176G is above or exactly 0.01.
no

Please check the record A111G A145U C150G C169G U176A and state if its reverse-splicing fitness is at or above 0.01.
no

Identify whether the reported reverse-splicing fitness of the following variant is 0.01 or greater: C82U A111G A145C C169G U176G
no

I'd appreciate it if you could say whether C82U A111C A120G C150G C169A U176G has reverse-splicing fitness at least equal to 0.01.
no

Reported reverse-splicing fitness at or above 0.01? A111C A120C A145C C169G U176G
no

Can A111C A145U C169A U176C be said to have reverse-splicing fitness at or above 0.01?
yes

reverse-splicing fitness >= 0.01 for C82A A111U A120G A145C C169G U176G ?
no

Does reverse-splicing fitness meet or surpass 0.01 for C82U A120U A145U C150G C169G ?
no
